System: HT-29
Assay: Induction of apoptosis in human HT-29 cells assessed as decrease in ATP level at 10 uM after 72 hrs by luminescence assay
Format: functional
Design: scale not given: the % may be the effect or the level left
Calls of active or inactive are those of the source. The calls are words filed in the database; no cut-off is given here.

>  <smiles entry>
O=C(O)/C=C/c1ccc(-c2ccc(O)c(C34CC5CC(CC(C5)C3)C4)c2)c(Cl)c1

>  <Activity>
>=40%

$$$$
>  <smiles entry>
O=C(O)CNc1ccc(-c2ccc(O)c(C34CC5CC(CC(C5)C3)C4)c2)c(Cl)c1

>  <Activity>
>=40%

$$$$
>  <smiles entry>
O=C(O)/C=C/c1ccc(-c2ccc(O)c(C34CC5CC(CC(C5)C3)C4)c2)nc1

>  <Activity>
>=40%

$$$$
>  <smiles entry>
O=C(O)/C=C/c1cnc(-c2ccc(O)c(C34CC5CC(CC(C5)C3)C4)c2)cn1

>  <Activity>
inactive

$$$$
>  <smiles entry>
O=C(O)/C=C/c1cnc(-c2ccc(O)c(C34CC5CC(CC(C5)C3)C4)c2)nc1

>  <Activity>
inactive

$$$$
>  <smiles entry>
O=C(O)/C=C/c1cnc(-c2ccc(O)c(C34CC5CC(CC(C5)C3)C4)c2)c(Cl)c1

>  <Activity>
inactive

$$$$

* * *

Assay: Aqueous solubility of the compound in PBS at pH 7.2 by UV spectrophotometric analysis
Type: physicochemical
Details: PBS, read-out: solubility
Readings of solubility for the listed compounds

>  <smiles entry>
O=C(O)/C=C/c1cnc(-c2ccc(O)c(C34CC5CC(CC(C5)C3)C4)c2)nc1

>  <solubility / µM>
0.44

$$$$
>  <smiles entry>
O=C(O)/C=C/c1ccc(-c2ccc(O)c(C34CC5CC(CC(C5)C3)C4)c2)nc1

>  <solubility / µM>
14

$$$$
